TARGET DESC: OCT2 (Homo sapiens)
RUN DESCRIPTION: Inhibition of OCT2-mediated [3H]MPP+ uptake in HEK-OCT2 cells
CONDITION DETAILS: test drug 200 µM; MPP+ 50 μM; 3 min; net uptake HEK-OCT2 minus HEK-VC
Cut-off 10% on % Inhibition of OCT2-dependent MPP+ uptake at 200 µM (mean ± SEM), inclusive. At or above means 1.0; below means 0.0.

Q: Confirm if % Inhibition of OCT2-dependent MPP+ uptake at 200 µM (mean ± SEM) reported for the molecule C[C@H]1O[C@@H](O[C@H]2[C@@H](O)C[C@H](O[C@H]3[C@@H](O)C[C@H](O[C@H]4CC[C@@]5(C)[C@H](CC[C@@H]6[C@@H]5CC[C@]5(C)[C@@H](C7=CC(=O)OC7)CC[C@]65O)C4)O[C@@H]3C)O[C@@H]2C)C[C@H](O)[C@@H]1O [Digitoxin] is 10% or above.
Ans: 0.0

Q: Record: CCC(C)(C)C(=O)O[C@H]1C[C@@H](C)C=C2C=C[C@H](C)[C@H](CC[C@@H]3C[C@@H](O)CC(=O)O3)[C@H]21 [Simvastatin lactone]
Ans: 1.0

Q: And Cc1nc2n(c(=O)c1CCN1CCC(c3noc4cc(F)ccc34)CC1)CCCC2 [Risperidone] ?
Ans: 1.0

Q: Now try CCOC(=O)C1=C(C)NC(C)=C(C(=O)OC)C1c1cccc(Cl)c1Cl (centres unmarked) [Felodipine] .
Ans: 0.0

Q: And then O=C(NCCN1CCOCC1)c1ccc(Cl)cc1 [Moclobemide] , what is it?
Ans: 0.0

Q: And what about the molecule O=C(O[C@H]1C[C@H]2CC[C@@H](C1)[N+]21CCCC1)C(O)(c1ccccc1)c1ccccc1 [Trospium chloride] ?
Ans: 1.0

Q: And then Fc1ccc([C@@H]2CCNC[C@H]2COc2ccc3c(c2)OCO3)cc1 [Paroxetine] , what is it?
Ans: 1.0

Q: Field entry: CN1C(=O)CN=C(c2ccccc2F)c2cc([N+](=O)[O-])ccc21 [Flunitrazepam]
Ans: 1.0

Q: Moving on to the next molecule: COc1ccccc1OCCNCC(O)COc1cccc2[nH]c3ccccc3c12 (centres unmarked) [Carvedilol]
Ans: 1.0

Q: Field entry: CCOC(=O)[C@H](CCc1ccccc1)N[C@@H](C)C(=O)N1[C@H](C(=O)O)C[C@@H]2CCC[C@@H]21 [Ramipril]
Ans: 1.0

Q: Also check CN(C)CCC=C1c2ccccc2CCc2ccccc21 [Amitriptyline]
Ans: 1.0

Q: Next up: C=C1CC[C@H](O)C/C1=C/C=C1\CCC[C@]2(C)[C@@H]([C@H](C)CCCC(C)C)CC[C@@H]12 [Cholecalciferol]
Ans: 1.0

Q: One more molecule: CN(C)CCC[C@@]1(c2ccc(F)cc2)OCc2cc(C#N)ccc21 [Escitalopram]
Ans: 1.0

Q: Here is the next molecule: CCOC(=O)[N-]c1cn(N2CCOCC2)n[o+]1 [Molsidomine]
Ans: 0.0

Q: Item: CN1CCN(C2=Nc3cc(Cl)ccc3Nc3ccccc32)CC1 [Clozapine]
Ans: 1.0

Q: Can you handle CCCCc1nc(Cl)c(CO)n1Cc1ccc(-c2ccccc2-c2nn[nH]n2)cc1 [Losartan] next?
Ans: 0.0

Q: Please do the same for O=C1CCc2ccc(OCCCCN3CCN(c4cccc(Cl)c4Cl)CC3)cc2N1 [Aripiprazole] as well.
Ans: 1.0

Q: Proceed to CN(C)CC/C=C1/c2ccccc2Sc2ccc(Cl)cc21 [Chlorprothixene]
Ans: 1.0

Q: Similarly, NS(=O)(=O)c1cc2c(cc1Cl)NCNS2(=O)=O [Hydrochlorothiazide] ?
Ans: 0.0

Q: Try the molecule CCCC(CCC)C(=O)O [Valproic acid]
Ans: 0.0

Q: Then what about the molecule NC(=O)N1c2ccccc2C=Cc2ccccc21 [Carbamazepine] ?
Ans: 0.0

Q: Let us now turn to CCC1=C(C)CN(C(=O)NCCc2ccc(S(=O)(=O)NC(=O)N[C@H]3CC[C@H](C)CC3)cc2)C1=O [Glimepiride]
Ans: 1.0

Q: How about this molecule: Cc1cccc(Nc2ccncc2S(=O)(=O)NC(=O)NC(C)C)c1 [Torasemide]
Ans: 0.0

Q: Request: CCOC(=O)C1=C(C)NC(C)=C(C(=O)OC)C1c1cccc([N+](=O)[O-])c1 (centres unmarked) [Nitrendipine]
Ans: 0.0

Q: Next molecule up: Cc1c(N(C)CS(=O)(=O)O)c(=O)n(-c2ccccc2)n1C [Metamizole]
Ans: 0.0

Q: Proceed to CC1CCN(CCCC(=O)c2ccc(F)cc2)CC1 [Melperone]
Ans: 1.0

Q: Then this molecule: Cn1c(=O)c2[nH]cnc2n(C)c1=O [Theophylline]
Ans: 0.0

Q: What about this molecule? N[C@@H](CC(=O)N1CCn2c(nnc2C(F)(F)F)C1)Cc1cc(F)c(F)cc1F [Sitagliptin]
Ans: 1.0

Q: // repeat for CN(C)CCCC1(c2ccc(F)cc2)OCc2cc(C#N)ccc21 (centres unmarked) [Citalopram] and report
Ans: 1.0

Q: Query CC(CN(C)C)CN1c2ccccc2CCc2ccccc21 (centres unmarked) [Trimipramine] next
Ans: 1.0

Q: Would you mind doing Cc1ncsc1CCCl [Clomethiazole] as well?
Ans: 0.0

Q: Next record, please: CC1(C)S[C@@H]2[C@H](NC(=O)[C@H](N)c3ccc(O)cc3)C(=O)N2[C@H]1C(=O)O [Amoxicillin]
Ans: 0.0

Q: Same question for COc1cc2nc(N3CCN(C(=O)C4COc5ccccc5O4)CC3)nc(N)c2cc1OC (centres unmarked) [Doxazosin] please.
Ans: 1.0

Q: Continue with [Li] [Lithium]
Ans: 0.0

###

TARGET DESC: OCT2 (Homo sapiens)
RUN DESCRIPTION: Inhibition of OCT2-mediated [3H]MPP+ uptake in HEK-OCT2 cells
CONDITION DETAILS: test drug 200 µM; MPP+ 50 μM; 3 min; net uptake HEK-OCT2 minus HEK-VC
QUANTITY NAME: % Inhibition of OCT2-dependent MPP+ uptake at 200 µM (mean ± SEM) (%)
Provide the reading as a plain figure in %.

Q: For the compound shown here, CCN(CC)CCNC(=O)c1cc(Cl)c(N)cc1OC [Metoclopramide] , give the reported % Inhibition of OCT2-dependent MPP+ uptake at 200 µM (mean ± SEM).
Ans: 66.6

Q: Next entry: NC(=O)C1(N2CCCCC2)CCN(CCCC(=O)c2ccc(F)cc2)CC1
Ans: 33.1

Q: Another: CCOC(=O)[C@H](CCc1ccccc1)N[C@@H](C)C(=O)N1CCC[C@H]1C(=O)O
Ans: 20.2

Q: For CC(C)OC(=O)C(C)(C)Oc1ccc(C(=O)c2ccc(Cl)cc2)cc1 [Fenofibrate] then?
Ans: 32.0

Q: Queued: CC(C)NCC(O)COc1ccc(COCCOC(C)C)cc1 (stereo not drawn)
Ans: 11.8

Q: Quick one: N[C@@H](Cc1ccc(O)c(O)c1)C(=O)O
Ans: 11.8

Q: Field entry: O=C(CCCN1CCC(n2c(O)nc3ccccc32)CC1)c1ccc(F)cc1
Ans: 1.6

Q: Now consider CC(CN1c2ccccc2Sc2ccccc21)N(C)C (stereo not drawn) and answer again.
Ans: 76.0

Q: Another compound: CN(Cc1cnc2nc(N)nc(N)c2n1)c1ccc(C(=O)N[C@@H](CCC(=O)O)C(=O)O)cc1 [Methotrexate]
Ans: -9.5

###

Give measured inhibition at 3 min, 200 µM for each item. Keep answers brief.
TARGET DESC: OCT2 (Homo sapiens)
RUN DESCRIPTION: Inhibition of OCT2-mediated [14C]metformin uptake in HEK-OCT2 cells
CONDITION DETAILS: human, pH 7.3
A number alone suffices; assume %.

Q: Can you share its inhibition at 3 min, 200 µM? I mean this compound: CCCCC(=O)N(Cc1ccc(-c2ccccc2-c2nnn[nH]2)cc1)[C@H](C(=O)O)C(C)C [Valsartan]
Ans: -12.9

Q: And O=[N+]([O-])O[C@H]1CO[C@H]2[C@@H]1OC[C@H]2O[N+](=O)[O-] [Isosorbide dinitrate] ?
Ans: 21.7

###

TARGET DESC: OCT2 (Homo sapiens, UniProt O15244)
Sequence (O15244 whole entry): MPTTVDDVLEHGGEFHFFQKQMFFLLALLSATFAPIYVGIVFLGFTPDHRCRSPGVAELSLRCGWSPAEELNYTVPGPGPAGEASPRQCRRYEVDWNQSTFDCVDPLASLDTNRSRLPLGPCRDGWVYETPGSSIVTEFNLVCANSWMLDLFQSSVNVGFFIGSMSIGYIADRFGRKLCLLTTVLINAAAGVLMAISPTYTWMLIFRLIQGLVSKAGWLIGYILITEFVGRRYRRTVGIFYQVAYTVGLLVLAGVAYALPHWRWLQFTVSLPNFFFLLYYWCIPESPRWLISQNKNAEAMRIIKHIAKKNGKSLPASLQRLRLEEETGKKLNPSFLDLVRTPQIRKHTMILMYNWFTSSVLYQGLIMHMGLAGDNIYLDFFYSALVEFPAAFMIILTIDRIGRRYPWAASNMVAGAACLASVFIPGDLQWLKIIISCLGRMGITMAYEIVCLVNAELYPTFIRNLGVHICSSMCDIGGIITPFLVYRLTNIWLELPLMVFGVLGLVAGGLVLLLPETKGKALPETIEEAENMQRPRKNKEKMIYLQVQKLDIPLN
RUN DESCRIPTION: Inhibition of OCT2-mediated [3H]MPP+ uptake in HEK-OCT2 cells
CONDITION DETAILS: test drug 200 µM; MPP+ 50 μM; 3 min; net uptake HEK-OCT2 minus HEK-VC
# Y = % Inhibition of OCT2-dependent MPP+ uptake at 200 µM (mean ± SEM) below 40% (exclusive); N = % Inhibition of OCT2-dependent MPP+ uptake at 200 µM (mean ± SEM) at/above 40%

Q: # TODO verify % Inhibition of OCT2-dependent MPP+ uptake at 200 µM (mean ± SEM) < 40% strictly for this compound: CC12CC3CC(C)(C1)CC(N)(C3)C2 [Memantine]
Ans: N

Q: Further, for Cl.Cl.OCCN1CCN(CCC=C2c3ccccc3Sc3ccc(C(F)(F)F)cc32)CC1 (mixture of isomers) [Flupentixol] ?
Ans: N

Q: One more compound: CCCCC1=NC2(CCCC2)C(=O)N1Cc1ccc(-c2ccccc2-c2nnn[nH]2)cc1 [Irbesartan]
Ans: Y

Q: Please answer likewise for NC(=O)CN1CCCC1=O [Piracetam]
Ans: Y

Q: Another compound to check: CCN(C)C(=O)Oc1cccc([C@H](C)N(C)C)c1 [Rivastigmine]
Ans: N

Q: What do we get for CO/N=C(\C(=O)N[C@@H]1C(=O)N2C(C(=O)O)=C(COC(N)=O)CS[C@H]12)c1ccco1 [Cefuroxime] ?
Ans: Y

Q: Entry to check: CC[C@H](C)C(=O)O[C@H]1C[C@H](O)C=C2C=C[C@H](C)[C@H](CC[C@@H](O)C[C@@H](O)CC(=O)O)[C@H]21 [Pravastatin]
Ans: Y
